target: FXR ligand binding domain (GST-FXR LBD fusion protein, human FXR aa 193-473) (Homo sapiens, UniProt Q96RI1); construct: fused on or other part: Glutathione-S-transferase (GST) fused N-terminally to the FXR LBD, used to capture the protein on glutathione SPA beads; experiment: Radioligand binding assay (scintillation proximity, radioligand displacement); conditions: 40 nM GST-FXR LBD on SPA beads, test compound 6×10^−9 M to 2.5×10^−5 M, read-out: h-IC50 Binding
Sequence (Q96RI1 211-486 limits assumed): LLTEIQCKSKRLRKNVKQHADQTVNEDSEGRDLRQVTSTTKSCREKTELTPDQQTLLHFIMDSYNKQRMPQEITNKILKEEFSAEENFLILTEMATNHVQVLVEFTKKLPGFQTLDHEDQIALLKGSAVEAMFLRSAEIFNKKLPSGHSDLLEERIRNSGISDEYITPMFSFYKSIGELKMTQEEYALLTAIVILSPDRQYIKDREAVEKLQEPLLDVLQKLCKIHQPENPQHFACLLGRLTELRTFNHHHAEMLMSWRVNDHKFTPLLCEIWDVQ
quantity measured: IC50 (nM)

>  <compound>
COc1ccc(-c2nc3cc(F)c(F)cc3n2C(COc2ccc(C(=O)O)cn2)C2CCCCC2)c(OC)n1 (single isomer, unassigned; (-)) [Example 75]

>  <IC50, nM>
90

$$$$

I: Cc1cc(C(=O)O)ccc1OCC(C1CCCCC1)n1c(-c2ccc(Cl)cc2)nc2cc(F)c(F)cc21 (single isomer, unassigned; (+)) [Example 13]
II: O=C(O)c1cc(F)c(OCC(C2CCCCC2)n2c(-c3ccc(Cl)cc3)nc3ccccc32)c(F)c1 (single isomer, unassigned; (-)) [Example 104]
-- ask Hi! Which is lower in terms of IC50, the first one I or the second one II ? Kindly state the label of the option you pick.
-- reply II

* * *

biological target: FXR ligand binding domain (GST-FXR LBD fusion protein, human FXR aa 193-473) (Homo sapiens, UniProt Q96RI1); construct: fused on or other part: Glutathione-S-transferase (GST) fused N-terminally to the FXR LBD, used to capture the protein on glutathione SPA beads; assay: Radioligand binding assay (scintillation proximity, radioligand displacement); settings: 40 nM GST-FXR LBD on SPA beads, test compound 6×10^−9 M to 2.5×10^−5 M, read-out: h-IC50 Binding
quantity measured: IC50 (nM)

Check out these entries, answers already filled in.
>  <compound>
COc1ccc(-c2nc3cc(F)c(F)cc3n2C(CCc2ccc(C(=O)O)cc2)C2CCCCC2)c(OC)n1 (single isomer, unassigned; (+)) [Example 147]

>  <assay value>
0.4

$$$$
>  <compound>
O=C(O)c1ccc(COCC(C2CCCCC2)n2c(-c3ccc(Cl)cc3)nc3cc(F)c(F)cc32)cc1 (single isomer, unassigned; (+)) [Example 69]

>  <assay value>
700

$$$$
>  <compound>
Fc1cc2nc(-c3ccc(Cl)cc3)n(C(COc3ccc(-c4nnn[nH]4)cc3F)C3CCCCC3)c2cc1F (single isomer, unassigned; (+)) [Example 80]

>  <assay value>
50

$$$$

a: O=C(O)c1cc(F)c(OCC(C2CCCCCC2)n2c(-c3ccc(Cl)cc3)nc3cc(F)c(F)cc32)c(F)c1 (single isomer, unassigned; (+)) [Example 133]
b: O=C(O)c1cc(F)c(OCC(C2CCCCC2)n2c(-c3ccc(Cl)cc3)nc3cc(F)c(F)cc32)c(Cl)c1 (single isomer, unassigned; (-)) [Example 77]
c: O=C(O)c1cc(F)c(OCC(C2CCCCC2)n2c(-c3ccc(Cl)cc3)nc3ccccc32)c(F)c1 (stereo not drawn) [Example 102]
-- ask Put the items in order so that reported IC50 rises from first to last. Returns: the labels listed in the requested order.
-- reply b, a, c
(b: 3 nM, a: 10 nM, c: 30 nM)

* * *

Target: FXR ligand binding domain (GST-FXR LBD fusion protein, human FXR aa 193-473) (Homo sapiens)
Construct: fused on or other part: Glutathione-S-transferase (GST) fused N-terminally to the FXR LBD, used to capture the protein on glutathione SPA beads
Assay: Radioligand binding assay (scintillation proximity, radioligand displacement)
Conditions: 40 nM GST-FXR LBD on SPA beads, test compound 6×10^−9 M to 2.5×10^−5 M, read-out: h-IC50 Binding
Procedure: The following tests were carried out in order to determine the activity of the compounds of formula (I). […] Binding of test substances to the FXR ligand binding domain was assessed in a radioligand displacement assay. […] All binding assays were performed in 96-well plates and the amount of bound ligand was measured on a Packard TopCount using OptiPlates (Packard).
pIC50: −log10 of the molar value.
quantity measured: pIC50

Check out these entries, answers already filled in.
>  <molecule>
O=C(O)c1ccc(OCC(C2CCCCC2)n2c(-c3ccc(Cl)cc3)nc3cc(F)c(F)cc32)cc1 (stereo not drawn) [Example 4]

>  <pIC50>
7.15

$$$$
>  <molecule>
Cc1cc(C(=O)O)cc(C)c1OCC(C1CCCCC1)n1c(-c2ccc(Cl)cc2)nc2ccccc21 (single isomer, unassigned; (-)) [Example 106]

>  <pIC50>
7.00

$$$$
>  <molecule>
Cc1cc(C(=O)O)cc(C)c1OCC(C1CCCCC1)n1c(-c2ccc(Cl)cc2)nc2ccccc21 (stereo not drawn) [Example 105]

>  <pIC50>
7.40

$$$$

A: Fc1cc2nc(-c3ccc(Cl)cc3)n(C(COc3ccncc3)C3CCCCC3)c2cc1F (stereo not drawn)
B: Fc1cc2nc(-c3ccc(Cl)cc3)n([C@H](COCC3CCCCC3)C3CCCCC3)c2cc1F
-- ask Thinking about recorded pIC50 values, which is higher, A or B ? Kindly state the label of the option you pick.
-- reply A

I: CC(C)(Oc1ccc(OCC(C2CCCCC2)n2c(-c3ccc(Cl)cc3)nc3cc(F)c(F)cc32)nc1)C(=O)O (single isomer, unassigned; (+)) [Example 48]
II: O=C(O)c1ccc(CCC(C2CCCCC2)n2c(-c3ccccc3)nc3cc(F)c(F)cc32)cc1 (stereo not drawn) [Example 142]
-- ask Hi! Which is lower in terms of pIC50, the first one I or the second one II ? Kindly state the label of the option you pick.
-- reply I
(I: 6.30, II: 8.30)

a: Fc1cc2nc(-c3ccc(Cl)cc3)n(C(COc3cccnc3)C3CCCCC3)c2cc1F (stereo not drawn)
b: CC(OCC(C1CCCCC1)n1c(-c2ccc(Cl)cc2)nc2cc(F)c(F)cc21)c1ccc(C(=O)O)cc1 (stereo not drawn)
-- ask Thinking about recorded pIC50 values, which is higher, a or b ? Kindly state the label of the option you pick.
-- reply a
(a: 6.70, b: 6.22)

* * *

target: FXR ligand binding domain (GST-FXR LBD fusion protein, human FXR aa 193-473) (Homo sapiens, UniProt Q96RI1); construct: fused on or other part: Glutathione-S-transferase (GST) fused N-terminally to the FXR LBD, used to capture the protein on glutathione SPA beads; assay: Radioligand binding assay (scintillation proximity, radioligand displacement); conditions: 40 nM GST-FXR LBD on SPA beads, test compound 6×10^−9 M to 2.5×10^−5 M, read-out: h-IC50 Binding
pIC50: −log10 of the molar value.
quantity measured: pIC50

Check out these entries, answers already filled in.
>  <compound>
O=C(O)c1cc(F)c(OCC(C2CCCCC2)n2c(-c3ccc(Cl)cc3)nc3ccccc32)c(Cl)c1 (stereo not shown) [Example 108]

>  <assay value>
8.00

$$$$
>  <compound>
O=C(O)C1(Oc2ccc(OCC(C3CCCCC3)n3c(-c4ccc(Cl)cc4)nc4cc(F)c(F)cc43)cc2)CC1 (single isomer, unassigned; (+)) [Example 122]

>  <assay value>
6.74

$$$$
>  <compound>
COc1ccc(-c2nc3cc(F)c(F)cc3n2C(COc2c(C)cc(C(=O)O)cc2C)C2CCCCC2)c(OC)n1 (stereo not shown) [Example 82]

>  <assay value>
9.00

$$$$
>  <compound>
O=C(O)c1cc(F)c(OCC(C2CCCCC2)n2c(-c3ccc(Cl)cc3)nc3cc(F)c(F)cc32)c(F)c1 (stereo not shown) [Example 85]

>  <assay value>
8.00

$$$$
>  <compound>
COc1ccc(-c2nc3cc(F)c(F)cc3n2C(COc2c(F)cc(C(=O)O)cc2F)C2CCCCC2)c(OC)n1 (stereo not shown) [Example 96]

>  <assay value>
8.70

$$$$

1: CC(C)(Oc1c(F)cc(-c2nnn[nH]2)cc1F)C(C1CCCCC1)n1c(-c2ccc(Cl)cc2)nc2cc(F)c(F)cc21 (single isomer, unassigned) [Example 115]
2: Fc1cc2nc(-c3ccc(Cl)cc3)n(C(COc3ccccn3)C3CCCCC3)c2cc1F (stereo not shown) [Example 29]
3: Fc1cc2nc(-c3ccc(Cl)cc3)n(C(COc3ccc(-c4nnn[nH]4)cc3F)C3CCCCC3)c2cc1F (stereo not shown) [Example 66]
-- ask Rank by pIC50 (largest to smallest). Returns: the labels listed in the requested order.
-- reply 1, 3, 2

1: O=C(O)c1ccc(OCC(C2CCCCC2)n2c(-c3ccc(Cl)cc3)nc3cc(F)c(F)cc32)nc1 (stereo not shown) [Example 19]
2: Cc1cc(-c2nnn[nH]2)cc(C)c1OCC(C1CCCCC1)n1c(-c2ccc(Cl)cc2)nc2cc(F)c(F)cc21 (stereo not shown) [Example 70]
-- ask Hi! Which is lower in terms of pIC50, the first one 1 or the second one 2 ? Kindly state the label of the option you pick.
-- reply 1
(1: 7.30, 2: 8.00)

1: O=C(O)C1(Oc2ccc(OCC(C3CCCCC3)n3c(-c4ccc(Cl)cc4)nc4cc(F)c(F)cc43)nc2)CC1 (single isomer, unassigned; (+)) [Example 52]
2: O=C(O)c1cnc(OCC(C2CCCCC2)n2c(-c3ccc(Cl)cc3)nc3cc(F)c(F)cc32)c(Cl)c1 (single isomer, unassigned; (-)) [Example 24]
3: O=C(O)c1c(F)cc(OCC(C2CCCCC2)n2c(-c3ccc(Cl)cc3)nc3cc(F)c(F)cc32)cc1F (single isomer, unassigned; (+)) [Example 43]
4: COc1ccc(-c2nc3cc(F)c(F)cc3n2C(COc2c(C)cc(C(=O)O)cc2C)C2CCCCC2)c(OC)n1 (single isomer, unassigned; (+)) [Example 83]
-- ask Rank by pIC50 (largest to smallest). Returns: the labels listed in the requested order.
-- reply 4, 2, 1, 3
(4: 9.70, 2: 7.70, 1: 7.10, 3: 6.15)

1: Cc1cc(OCC(C2CCCCC2)n2c(-c3ccc(Cl)cc3)nc3cc(F)c(F)cc32)cc(C)c1C(=O)O (stereo not shown) [Example 61]
2: Cc1cc(Cl)ccc1-c1nc2cc(F)c(F)cc2n1C(COc1c(F)cc(C(=O)O)cc1F)C1CCCCC1 (single isomer, unassigned; (+)) [Example 126]
3: Fc1cc2nc(-c3ccc(Cl)cc3)n(C(COc3ccc(-c4nnn[nH]4)cc3F)C3CCCCC3)c2cc1F (single isomer, unassigned; (-)) [Example 81]
-- ask Rank by pIC50 (largest to smallest). Returns: the labels listed in the requested order.
-- reply 3, 2, 1
(3: 8.00, 2: 7.52, 1: 5.85)
